The origin of these recorded values is patent US20230159510A1.

Ki values by entry
system.name: PRMT5/MEP50 (Homo sapiens, UniProt O14744)
Sequence (O14744 whole entry): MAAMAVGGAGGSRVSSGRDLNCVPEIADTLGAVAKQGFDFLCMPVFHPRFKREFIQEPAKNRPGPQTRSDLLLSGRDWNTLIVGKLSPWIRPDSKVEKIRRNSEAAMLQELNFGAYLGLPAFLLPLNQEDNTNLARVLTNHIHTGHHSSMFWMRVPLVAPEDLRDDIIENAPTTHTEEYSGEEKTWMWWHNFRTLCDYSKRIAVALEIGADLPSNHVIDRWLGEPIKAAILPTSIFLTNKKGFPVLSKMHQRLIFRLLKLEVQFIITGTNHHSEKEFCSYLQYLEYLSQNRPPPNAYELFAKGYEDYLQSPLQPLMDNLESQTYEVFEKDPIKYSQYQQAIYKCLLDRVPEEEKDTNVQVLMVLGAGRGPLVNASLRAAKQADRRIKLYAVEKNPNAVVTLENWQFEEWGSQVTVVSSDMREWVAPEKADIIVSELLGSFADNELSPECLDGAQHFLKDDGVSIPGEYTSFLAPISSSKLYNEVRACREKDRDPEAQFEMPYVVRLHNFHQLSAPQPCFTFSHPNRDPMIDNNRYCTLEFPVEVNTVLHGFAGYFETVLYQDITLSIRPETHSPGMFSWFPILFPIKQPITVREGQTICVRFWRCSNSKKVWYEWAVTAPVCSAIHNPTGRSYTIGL
Sequence (Q9BQA1 whole entry partner): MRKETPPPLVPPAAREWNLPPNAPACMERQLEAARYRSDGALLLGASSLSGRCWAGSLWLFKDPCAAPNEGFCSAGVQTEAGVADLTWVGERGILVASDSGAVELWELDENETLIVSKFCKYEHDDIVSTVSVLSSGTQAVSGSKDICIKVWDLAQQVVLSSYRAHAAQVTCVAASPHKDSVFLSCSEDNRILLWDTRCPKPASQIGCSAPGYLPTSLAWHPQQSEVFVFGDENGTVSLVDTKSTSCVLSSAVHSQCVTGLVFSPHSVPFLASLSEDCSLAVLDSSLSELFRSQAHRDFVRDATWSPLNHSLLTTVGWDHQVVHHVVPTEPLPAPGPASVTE
procedure.text: MTase-Glo methyl transferase assay, Method A (Histone H4 peptide, 1 µM MTA, 24 h pre-incubation)
Format: biochemical
Parameters: made in house
conditions: read-out: PRMT5 MTase Glo Ki (nM, Meth. A)
Enter your answer as a number in nM; do not include the unit.

Would you kindly share the measured Ki for Cc1cc2cc(C(=O)N(Cc3cnc4ccccc4c3)[C@H](C)c3ncccn3)ccc2nc1N (single isomer, unassigned) ?
5.51

* * *

pIC50 values by entry
Test system: HCT116 WT cells
procedure.text: HCT116 proliferation assay, WT cells (CellTiter-Glo, 6 days)
Type: cell-based
conditions: read-out: Prolif_HCT116-WT IC50
Please report pIC50 as the negative decimal logarithm of the molar concentration, giving only the number.

[
  {
    "compound": "Cc1cc2cc(C(=O)N(Cc3ccc4[nH]ncc4c3)Cc3ccc(C(F)(F)F)cn3)ccc2nc1N [Example 618]",
    "system.name": "HCT116 WT cells",
    "endpoint.result": 5.85
  },
  {
    "compound": "CO[C@@H]1COCC[C@H]1N(Cc1ccc(C(F)(F)F)cn1)C(=O)c1ccc2nc(N)c(C)cc2c1 (mixture of isomers) [Example 748]",
    "system.name": "HCT116 WT cells",
    "endpoint.result": 5.58
  }
]

Would you kindly share the measured pIC50 for Cc1cc2cc(C(=O)N(Cc3ccc4[nH]ncc4c3)Cc3ccc(C(F)(F)F)cn3)ccc2nc1N [Example 369] ?
5.47
